Where do the numbers come from? From ChEMBL document CHEMBL3217698.

System: Pseudomonas aeruginosa
Procedure Text: Antimicrobial activity against Pseudomonas aeruginosa K799/WT assessed as faint inhibition zone at 37 degC for 24 hrs by agar diffusion method
Format: functional
Parameter inhibition zone (IZ): see the listing below.
Report only the number, with the unit mm understood.

## Input // lookup inhibition zone (IZ) for CC(=O)NC[C@H]1CN(c2ccc(N3CCN(C(=O)OCC4=C(C(=O)O)N5C(=O)[C@@H](NC(=O)Cc6ccccc6)[C@H]5SC4)CC3)c(F)c2)C(=O)O1
## Output 20

## Input What do we get for CC(=O)OC[C@H]1CN(c2ccc(N3CCNCC3)c(F)c2)C(=O)O1 ?
## Output 15

## Input What do we get for CC(=O)OCC1=C(C(=O)O)N2C(=O)[C@@H](NC(=O)Cc3ccccc3)[C@H]2SC1 ?
## Output 11

## Input What do we get for CC(=O)NC[C@H]1CN(c2ccc(N3CCNCC3)c(F)c2)C(=O)O1 ?
## Output 18

## Input What do we get for CC(=O)OC[C@H]1CN(c2ccc(N3CCN(C(=O)OCC4=C(C(=O)O)N5C(=O)[C@@H](NC(=O)Cc6ccccc6)[C@H]5SC4)CC3)c(F)c2)C(=O)O1 ?
## Output 17

====

System: Staphylococcus aureus
Procedure Text: Antimicrobial activity against Staphylococcus aureus Efs1 assessed as inhibition zone at 37 degC for 24 hrs by agar diffusion method
Format: functional
Parameter inhibition zone (IZ): see the listing below.
Write down the value, and be sure its unit follows.

## Input // lookup inhibition zone (IZ) for CC(=O)NC[C@H]1CN(c2ccc(N3CCN(C(=O)OCC4=C(C(=O)O)N5C(=O)[C@@H](NC(=O)Cc6ccccc6)[C@H]5SC4)CC3)c(F)c2)C(=O)O1
## Output 40 mm

## Input What do we get for CC(=O)OC[C@H]1CN(c2ccc(N3CCN(C(=O)OCC4=C(C(=O)O)N5C(=O)[C@@H](NC(=O)Cc6ccccc6)[C@H]5SC4)CC3)c(F)c2)C(=O)O1 ?
## Output 40 mm

## Input What do we get for CC(=O)NC[C@H]1CN(c2ccc(N3CCNCC3)c(F)c2)C(=O)O1 ?
## Output 31 mm

## Input What do we get for CC(=O)OCC1=C(C(=O)O)N2C(=O)[C@@H](NC(=O)Cc3ccccc3)[C@H]2SC1 ?
## Output 43 mm

## Input What do we get for CC(=O)OC[C@H]1CN(c2ccc(N3CCNCC3)c(F)c2)C(=O)O1 ?
## Output 31 mm

## Input What do we get for CC(=O)NC[C@H]1CN(c2ccc(N3CCOCC3)c(F)c2)C(=O)O1 ?
## Output 34 mm

====

Tested on: Micrococcus luteus
Procedure Text: Antimicrobial activity against Micrococcus luteus ATCC 10240 assessed as unclear inhibition zone at 37 degC for 24 hrs by agar diffusion method
Format: functional
Property Measured: inhibition zone (IZ) (mm)
Report only the number, with the unit mm understood.

Below, each entry is followed by its recorded inhibition zone (IZ) result.
# Molecule, Property Measured, Unit Descriptor, Result
records = [
    ("CC(=O)NC[C@H]1CN(c2ccc(N3CCNCC3)c(F)c2)C(=O)O1", "inhibition zone (IZ)", "mm", 30),
    ("CC(=O)OCC1=C(C(=O)O)N2C(=O)[C@@H](NC(=O)Cc3ccccc3)[C@H]2SC1 [CEFALORAM]", "inhibition zone (IZ)", "mm", 44),
    ("CC(=O)NC[C@H]1CN(c2ccc(N3CCOCC3)c(F)c2)C(=O)O1 [LINEZOLID]", "inhibition zone (IZ)", "mm", 45),
]

## Input // lookup inhibition zone (IZ) for CC(=O)OC[C@H]1CN(c2ccc(N3CCNCC3)c(F)c2)C(=O)O1
## Output 40

====

Parameter inhibition zone (IZ): see the listing below.
Tested on: Micrococcus luteus
Procedure Text: Antimicrobial activity against Micrococcus luteus ATCC 10240 assessed as inhibition zone at 37 degC for 24 hrs by agar diffusion method
Assay type: functional

Below, each entry is followed by its recorded inhibition zone (IZ) result.
# Compound String, inhibition zone (IZ)
rows = [
    ("CC(=O)OC[C@H]1CN(c2ccc(N3CCN(C(=O)OCC4=C(C(=O)O)N5C(=O)[C@@H](NC(=O)Cc6ccccc6)[C@H]5SC4)CC3)c(F)c2)C(=O)O1", "42 mm"),
    ("CC(=O)NC[C@H]1CN(c2ccc(N3CCOCC3)c(F)c2)C(=O)O1", "38 mm"),
    ("CC(=O)NC[C@H]1CN(c2ccc(N3CCNCC3)c(F)c2)C(=O)O1", "23 mm"),
    ("CC(=O)OCC1=C(C(=O)O)N2C(=O)[C@@H](NC(=O)Cc3ccccc3)[C@H]2SC1", "38 mm"),
]

Could you now consider this next molecule?
## Input // lookup inhibition zone (IZ) for CC(=O)NC[C@H]1CN(c2ccc(N3CCN(C(=O)OCC4=C(C(=O)O)N5C(=O)[C@@H](NC(=O)Cc6ccccc6)[C@H]5SC4)CC3)c(F)c2)C(=O)O1
## Output 38 mm
